- System: nude mice, LX-1 lung xenograft intrarenal, tumor weight T/C
- assay.method.text: NCI In Vivo Anticancer Drug Screen. Data for tumor model Human Lung LX-1 Xenograft (intrarenal inoculation) in NU/NU Swiss (nude) mice
- condition.info: endpoint: mean tumor weight change; dose: 100.0 mg/kg/injection; schedule: Q04DX003 (sc); vehicle: saline with Tween-80; higher = larger tumour
Inconclusive results are not listed.
quantity.measured: T/C

[[record]]
molecule = "Cc1ccc2c(c1)N=C(Nc1ccccc1)N=S2(C)=O (stereo not drawn)"
reported = "101 % of control"

[[record]]
molecule = "CC(=O)N(C)c1ccc(Nc2cc(C)[nH]c3ccc4ncnc4c23)cc1"
reported = "71 % of control"

[[record]]
molecule = "Nc1nc(-c2cccc3ccccc23)cc2ccccc12"
reported = "107 % of control"

[[record]]
molecule = "O=C(O[Si](Cc1ccccc1)(Cc1ccccc1)Cc1ccccc1)N(CCCl)CCCl"
reported = "53 % of control"

[[record]]
molecule = "O=C(Nc1ccccc1C(=O)O)c1cc([N+](=O)[O-])cc([N+](=O)[O-])c1"
reported = "86 % of control"


-- ask What T/C value was documented for this molecule, `C=C1N(C)c2ccccc2C1(C)C` ?
-- reply 76 % of control

-- ask What T/C value was documented for this molecule, CCCCOCN(COCCCC)C(C)Cc1ccccc1 (stereo not drawn) ?
-- reply 71 % of control

-- ask What T/C value was documented for this molecule, Nc1nc2ccc(NCc3ccc(C(=O)NC(CCC(=O)O)C(=O)O)cc3)cc2c(=O)[nH]1 (stereo not drawn) ?
-- reply 94 % of control

-- ask What T/C value was documented for this molecule, C=C1C(=O)OC2CC(C)C3C4OC4C(O)C3(C)C(O)C12 (stereo not drawn) ?
-- reply 97 % of control

-- ask What T/C value was documented for this molecule, `COC(=O)Nc1nc2ccc(C3(c4ccc(F)cc4)OCCO3)cc2[nH]1` ?
-- reply 89 % of control

-- ask What T/C value was documented for this molecule, `COc1cc(OC)c(NC(=O)ON2C(=O)c3ccccc3C2=O)cc1Cl` ?
-- reply 68 % of control

-- ask What T/C value was documented for this molecule, `COc1ccc(C(=O)c2no[n+]([O-])c2C(=O)c2ccc(OC)cc2)cc1` ?
-- reply 84 % of control

-- ask What T/C value was documented for this molecule, `c1cnc2ncncc2n1` ?
-- reply 81 % of control

// provenance: PubChem BioAssay AID264
